All values here come from PubChem BioAssay AID2060908.

- System: 186277-243-T-J2-PDC complex spheroids, viability;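 further: spheroids exposed to compounds for 7 days before viability read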
- protocol_notes: Anticancer human tumor 186277-243-T-J2-PDC patient-derived colon adenocarcinoma cell line growth inhibition [RAS]
- experimental_context: second compound 0.1 µM; first compound 1 µM; stronger effect = lower value
measured_metric: viability, T/C (%)

compound: NC1c2ccccc2OC12CCN(c1cnc3c(N4CCCc5ncccc54)n[nH]c3n1)CC2 (stereo not given) + C#Cc1c(F)ccc2cc(O)cc(-c3ncc4c(N5CC6CCC(C5)N6)nc(OCC56CCCN5CC(F)C6)nc4c3F)c12
value_measured: 7.67
//
compound: Nc1ccn(C2OC(CO)C(O)C2(F)F)c(=O)n1 (stereo not given) + C#Cc1c(F)ccc2cc(O)cc(-c3ncc4c(N5CC6CCC(C5)N6)nc(OCC56CCCN5CC(F)C6)nc4c3F)c12
value_measured: 7.04
//
compound: Nc1ccn(C2OC(CO)C(O)C2(F)F)c(=O)n1 (stereo not given) + C=CC(=O)N1CCN(c2nc(OCC3CCCN3C)nc3c(F)c(-c4nc(N)cc(C)c4C(F)(F)F)c(Cl)cc23)C(C)C1
value_measured: 11.8
//
compound: CCC(CC)c1cc(NC2CCC(N)C2)n2nccc2n1 (stereo not given) + C#Cc1c(F)ccc2cc(O)cc(-c3ncc4c(N5CC6CCC(C5)N6)nc(OCC56CCCN5CC(F)C6)nc4c3F)c12
value_measured: 32.4
//
compound: CCN1CCN(Cc2ccc(Nc3ncc(F)c(-c4cc(F)c5nc(C)n(C(C)C)c5c4)n3)nc2)CC1 + C=CC(=O)N1CCN(c2nc(OCC3CCCN3C)nc3c(F)c(-c4nc(N)cc(C)c4C(F)(F)F)c(Cl)cc23)C(C)C1
value_measured: 79.3
